- System: MT-4 cells
- assay_text: in vitro
- Type: cell-based, human
- settings: read-out: CC50 in MT-4; MT-4 cells, 7 days of culture
test_readout: CC50

*Q* // Input: Cc1cn(C2CC(O)C(C#N)(CO)O2)c(=O)[nH]c1=O (stereo not shown) . Output its CC50 only.
*A* > 10 µM

====

- Tested on: HIV-1^WT
- assay_text: Anti-HIV-1 MTT assay
- Assay type: cell-based
- settings: read-out: Anti-HIV-1 IC50 against HIV-1^WT, MT-4 cells, mean ± 1 S.D.
Where a name gives a salt, the structure may show the parent alone.
test_readout: IC50 (nM)
All answers are understood in nM, so give the number only.

*Q* // Input: Cc1cn([C@H]2C[C@H](N=[N+]=[N-])[C@@H](CO)O2)c(=O)[nH]c1=O [AZT, zidovudine, reference compound] . Output its IC50 only.
*A* 37.4

*Q* // Input: CC(C)OC(=O)OCOP(=O)(CO[C@H](C)Cn1cnc2c(N)ncnc21)OCOC(=O)OC(C)C [TDF, tenofovir disoproxil fumarate, reference compound] . Output its IC50 only.
*A* 204

*Q* // Input: Nc1nc(NC2CC2)c2ncn([C@H]3C=C[C@@H](CO)C3)c2n1 [ABC, abacavir, reference compound] . Output its IC50 only.
*A* 263

*Q* // Input: Cc1cn(C2CC(O)C(C#N)(CO)O2)c(=O)[nH]c1=O (stereo not shown) . Output its IC50 only.
*A* 9.1

====

- assay_text: in vitro
- Type: cell-based, human
- settings: human
Structures can show the parent of a compound that is named as a salt.
Measured CC50 values are reported for all entries that follow.
All answers are understood in µM, so give the number only.

1. C#C[C@]1(CO)O[C@@H](n2cnc3c(=O)[nH]c(N)nc32)C[C@@H]1O
7

*Q* // Input: C=C[C@]1(CO)O[C@@H](n2cnc3c(N)nc(N)nc32)C[C@@H]1O . Output its CC50 only.
*A* 20.6

*Q* // Input: Nc1ccn([C@H]2C[C@H](O)[C@](CO)(CF)O2)c(=O)n1 . Output its CC50 only.
*A* 4

*Q* // Input: CC(C)OC(=O)OCOP(=O)(CO[C@H](C)Cn1cnc2c(N)ncnc21)OCOC(=O)OC(C)C [TDF, tenofovir disoproxil fumarate, reference compound] . Output its CC50 only.
*A* 39.4

*Q* // Input: CC[C@]1(CO)O[C@@H](n2cnc3c(N)nc(N)nc32)C[C@@H]1O . Output its CC50 only.
*A* 35.9

*Q* // Input: C[C@]1(CO)O[C@@H](n2cnc3c(N)nc(N)nc32)C[C@@H]1O . Output its CC50 only.
*A* 4

*Q* // Input: C[C@]1(CO)O[C@@H](n2cnc3c(O)nc(N)nc32)C[C@@H]1O . Output its CC50 only.
*A* 4.6

====

Measured S.I. with (CC50/IC50^WT) values are reported for all entries that follow.
- Test system: MT-4 cells
- assay_text: in vitro
- Assay type: cell-based, human
- settings: CC50 in MT-4 / IC50 against HIV-1^WT

Illustrative cases are given below, each with its answer.
1) Cc1cn([C@H]2C[C@H](N=[N+]=[N-])[C@@H](CO)O2)c(=O)[nH]c1=O [AZT, zidovudine, reference compound]
> 2,670
2) C[C@]1(CO)O[C@@H](n2cnc3c(N)nc(N)nc32)C[C@@H]1O
15
3) Nc1ccn([C@H]2C[C@H](O)[C@](CO)(CF)O2)c(=O)n1
120
4) CNc1nc(N)nc2c1ncn2[C@H]1C[C@H](O)[C@](CO)(CF)O1
>600
5) C[C@]1(CO)O[C@@H](n2cnc3c(O)nc(N)nc32)C[C@@H]1O
25
6) C#C[C@]1(CO)O[C@@H](n2cnc3c(N)nc(F)nc32)C[C@@H]1O
64,000
7) Cc1cn(C2CC(O)C(C#N)(CO)O2)c(=O)[nH]c1=O (stereo not drawn)
> 1,100
8) CC[C@]1(CO)O[C@@H](n2cnc3c(N)nc(N)nc32)C[C@@H]1O
4,030

Now turn to the next compound.
*Q* // Input: C#C[C@]1(CO)O[C@@H](n2cnc3c(=O)[nH]c(N)nc32)C[C@@H]1O . Output its S.I. with (CC50/IC50^WT) only.
*A* 4,350
